Each recorded value in this set is attributed to PubChem BioAssay (Tox21).

# assay.system: Aryl hydrocarbon receptor (Homo sapiens)
# assay.overview: qHTS assay to identify small molecule that activate the aryl hydrocarbon receptor (AhR) signaling pathway (AID 743085); also: nearly all actives have a fitted effect of over 15% in size;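 as to activation: HG2L7.5c1 human HepG2 liver cells with stably integrated DRE-driven firefly reporter; % is scaled to controls: 0 for no effect and ±100 for the full control effect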
# experimental.setup: HepG2 AhR-luc (HG2L7.5c1), luciferase, 24 h; series mostly up to 70.3 µM
# Excerpt: U.S. Tox21 Program National Center for Advancing Translational Sciences [NCATS] NIH Chemical Genomics Center [NCGC] U.S. Environmental Protection Agency [EPA] National Institutes of Environmental Health Sciences [NIEHS] National Toxicology Program [NTP] U.S. Food and Drug Administration [FDA] Tox21 Assay overview: The Aryl hydrocarbon Receptor (AhR), a member of the family of basic helix-loop-helix transcription factors, is crucial to adaptive responses to environmental changes. […]
Results filed as inconclusive are left out. Activity calls are given as the source filed them. Calls follow the shape of the dose curve; as a rule, active = well fitted activation curve with a large enough effect in the repeat runs; inconclusive = weak or mixed curves; inactive = no such curve, though single readings can be large or run the other way.
Lab note: assign the record to one of yes (1) = active, no (0) = inactive

- molecule: "C[C@]12C=CC(=O)C=C1CC[C@@H]1[C@@H]2[C@@H](O)C[C@@]2(C)[C@H]1CC[C@]2(O)C(=O)CO"
  category.label: "no (0)"
- molecule: "O=c1ccc2ccccc2o1"
  category.label: "no (0)"
- molecule: "CCCCC(CC)COC(=O)/C=C/c1ccc(OC)cc1 (stereo unspecified)"
  category.label: "no (0)"
- molecule: "CC(C)(Oc1ccc(C2CC2(Cl)Cl)cc1)C(=O)O (stereo unspecified)"
  category.label: "no (0)"

Dear colleague, could you share the recorded outcome for "Nc1ccc(S(=O)(=O)c2ccc(N)cc2)cc1" when you have a moment?
no (0)

Dear colleague, could you share the recorded outcome for "NNC(=O)c1ccncc1" when you have a moment?
yes (1)

Dear colleague, could you share the recorded outcome for "CNC[C@H](O)c1cccc(O)c1" when you have a moment?
no (0)

* * *

# assay.overview: qHTS assay to identify small molecule agonists of the estrogen related receptor (ERR) signaling pathway from Tox21 library (AID 1224849); also: % is scaled to controls: 0 for no effect and ±100 for the full control effect; nearly all actives have a fitted effect of over 15% in size
# experimental.setup: ERR reporter cell line, ONE-Glo luciferase, 18 h; at 42.5 µM (top of the series)
For each record, write down the corresponding activity change, positive = activation.
Answers are plain numbers, in %.

- molecule: "CC(=O)OCC(COC(C)=O)OC(C)=O"
  meas.value: 6.67

Fill in activity change, positive = activation for each of the 6 molecules listed.
1. O=C1CN(/N=C/c2ccc([N+](=O)[O-])o2)C(=O)N1
2. Cc1cc(=O)n(-c2ccccc2)n1C
3. Cc1ccccc1C(OCCN(C)C)c1ccccc1 (centres undefined)
4. Cc1cn([C@H]2C[C@H](N=[N+]=[N-])[C@@H](CO)O2)c(=O)[nH]c1=O
5. NC(=O)c1cnccn1
6. c1ccc2[nH]ccc2c1

1. -52
2. 4.6
3. 0.836
4. 1.9
5. 4.26
6. 11.1

Fill in activity change, positive = activation for each of the 2 molecules listed.
1. O=C(C1CCCCC1)N1CC(=O)N2CCc3ccccc3C2C1 (centres undefined)
2. Oc1ccc(/C=C/c2cc(O)cc(O)c2)cc1

1: -13.9; 2: 132

Fill in activity change, positive = activation for each of the 3 molecules listed.
1. Nc1ccc(O)c(C(=O)O)c1
2. O=C(O)CCC(=O)O
3. Nc1ccc(S(=O)(=O)Nc2nccs2)cc1

1: -9.77; 2: 5.73; 3: 5.51

Fill in activity change, positive = activation for each of the 2 molecules listed.
1. CCCCC(CC)COC(=O)/C=C/c1ccc(OC)cc1 (centres undefined)
2. O=c1cc[nH]c(=S)[nH]1

1. -9.11
2. 7.5
